studySystem: p/CIP-EGFP fusion (nuclear receptor coactivator 3, mouse) (UniProt Q05BA5)
Sequence (Q05BA5 1-1403): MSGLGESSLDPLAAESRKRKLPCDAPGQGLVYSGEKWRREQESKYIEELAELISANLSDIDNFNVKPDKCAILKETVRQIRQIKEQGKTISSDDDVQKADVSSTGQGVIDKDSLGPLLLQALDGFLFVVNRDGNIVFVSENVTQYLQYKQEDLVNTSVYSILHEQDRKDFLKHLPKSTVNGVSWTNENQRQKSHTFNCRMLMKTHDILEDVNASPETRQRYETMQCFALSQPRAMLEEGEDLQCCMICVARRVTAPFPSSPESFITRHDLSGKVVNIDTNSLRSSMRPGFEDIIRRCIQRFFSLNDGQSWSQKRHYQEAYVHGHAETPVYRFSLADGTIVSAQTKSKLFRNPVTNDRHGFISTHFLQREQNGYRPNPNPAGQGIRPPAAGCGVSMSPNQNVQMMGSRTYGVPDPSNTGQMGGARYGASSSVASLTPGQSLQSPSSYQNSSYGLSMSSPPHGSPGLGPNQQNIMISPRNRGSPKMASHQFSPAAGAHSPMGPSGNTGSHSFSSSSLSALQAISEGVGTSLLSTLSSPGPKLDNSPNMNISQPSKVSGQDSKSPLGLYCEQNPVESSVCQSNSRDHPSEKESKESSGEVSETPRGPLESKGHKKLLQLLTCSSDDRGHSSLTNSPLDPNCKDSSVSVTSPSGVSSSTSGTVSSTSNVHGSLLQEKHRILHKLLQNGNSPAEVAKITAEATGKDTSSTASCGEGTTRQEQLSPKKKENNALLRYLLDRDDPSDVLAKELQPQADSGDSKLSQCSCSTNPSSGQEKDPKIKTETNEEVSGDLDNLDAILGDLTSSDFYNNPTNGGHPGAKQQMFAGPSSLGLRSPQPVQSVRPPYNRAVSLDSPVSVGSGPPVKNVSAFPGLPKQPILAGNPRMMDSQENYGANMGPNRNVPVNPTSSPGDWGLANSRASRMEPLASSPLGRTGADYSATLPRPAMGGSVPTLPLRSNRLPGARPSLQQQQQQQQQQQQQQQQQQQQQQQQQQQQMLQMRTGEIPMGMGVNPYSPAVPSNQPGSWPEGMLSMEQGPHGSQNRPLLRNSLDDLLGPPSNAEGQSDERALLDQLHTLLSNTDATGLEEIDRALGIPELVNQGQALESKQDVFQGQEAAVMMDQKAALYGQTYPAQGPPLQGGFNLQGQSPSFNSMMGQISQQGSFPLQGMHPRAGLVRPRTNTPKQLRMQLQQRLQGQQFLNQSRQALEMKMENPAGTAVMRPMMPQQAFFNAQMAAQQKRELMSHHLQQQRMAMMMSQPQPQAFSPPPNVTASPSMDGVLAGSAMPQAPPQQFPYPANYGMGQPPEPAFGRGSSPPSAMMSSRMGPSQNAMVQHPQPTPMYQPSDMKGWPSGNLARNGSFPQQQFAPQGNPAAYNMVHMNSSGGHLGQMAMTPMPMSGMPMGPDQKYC
assay: compounds lowering mouse p/CIP (NCOA3) protein levels – fluorescence, F442A cells, EGFP fusion, primary screen (AID 1984)
setupConditions: 16 h, at 10 µM, stronger effect = higher value
The whole screen tested about 290,000 compounds, of which about 35 (0.01%) were called active. The full list was thinned out, with actives kept by preference.
Reported decrease of EGFP signal values are given for each entry in this list.
Answer format: numeric, % implied, no suffix.

[
  {
    "compound": "O=C(NCc1ccncc1)C1CCCN(S(=O)(=O)c2ccc(Br)cc2)C1 (configuration not stated)",
    "studySystem": "p/CIP-EGFP fusion (nuclear receptor coactivator 3, mouse) (UniProt Q05BA5)",
    "decrease of EGFP signal, %": -8.8
  },
  {
    "compound": "O=C1COc2ccc(S(=O)(=O)NCCc3ccc(Cl)cc3)cc2N1",
    "studySystem": "p/CIP-EGFP fusion (nuclear receptor coactivator 3, mouse) (UniProt Q05BA5)",
    "decrease of EGFP signal, %": 8.8
  },
  {
    "compound": "CCOC(=O)c1c(S(=O)(=O)NCC(=O)Nc2ccc(C)cc2)c(C)n(C)c1C",
    "studySystem": "p/CIP-EGFP fusion (nuclear receptor coactivator 3, mouse) (UniProt Q05BA5)",
    "decrease of EGFP signal, %": 3.3
  },
  {
    "compound": "CC(Oc1cc2oc(=O)c3c(c2cc1Cl)CCCC3)C(=O)NCc1ccncc1 (configuration not stated)",
    "studySystem": "p/CIP-EGFP fusion (nuclear receptor coactivator 3, mouse) (UniProt Q05BA5)",
    "decrease of EGFP signal, %": -2.1
  }
]

Tested on p/CIP-EGFP fusion (nuclear receptor coactivator 3, mouse) (UniProt Q05BA5), the item Cc1nn(-c2ccccc2)c(Cl)c1/C=N/NC(=O)c1nn(C)cc1[N+](=O)[O-] showed decrease of EGFP signal equal to -5.8

Tested on p/CIP-EGFP fusion (nuclear receptor coactivator 3, mouse) (UniProt Q05BA5), the item CCCN(CCC)c1nc2c(C)cccn2c(=O)c1/C=C1/SC(=S)N(Cc2ccco2)C1=O showed decrease of EGFP signal equal to -656

Tested on p/CIP-EGFP fusion (nuclear receptor coactivator 3, mouse) (UniProt Q05BA5), the item Cc1c2cnn(CC(=O)NCCCN3CC(C)CC(C)C3)c(=O)c2c(C)n1Cc1ccc(Cl)cc1 (configuration not stated) showed decrease of EGFP signal equal to 0.5

Tested on p/CIP-EGFP fusion (nuclear receptor coactivator 3, mouse) (UniProt Q05BA5), the item COCCCN1C(=O)c2ccc(C(=O)OCC(=O)NCc3ccccc3OC)cc2C1=O showed decrease of EGFP signal equal to -12.5

Tested on p/CIP-EGFP fusion (nuclear receptor coactivator 3, mouse) (UniProt Q05BA5), the item CCOc1ccc2c(c1)c(=O)c(S(=O)(=O)c1ccc(C)cc1)cn2CC showed decrease of EGFP signal equal to -6

Tested on p/CIP-EGFP fusion (nuclear receptor coactivator 3, mouse) (UniProt Q05BA5), the item NC(=O)C(Cc1ccccc1)NC(=O)C12CC3CC(CC(C3)C1)C2 (configuration not stated) showed decrease of EGFP signal equal to -4.8

Tested on p/CIP-EGFP fusion (nuclear receptor coactivator 3, mouse) (UniProt Q05BA5), the item Cc1[nH]c2ccccc2c1C(=O)CN1CCCC(C)C1 (configuration not stated) showed decrease of EGFP signal equal to -10.8
